Test system: MOLT-4 leukemia
Valid outcomes are listed here; reply with one: 1 for active, -1 for inactive

>  <SMILES REPRESENTATION>
CN(C)CCCN(c1nc(C(Cl)(Cl)Cl)ns1)c1nc(C(Cl)(Cl)Cl)ns1

>  <CLASS LABEL>
-1

$$$$
>  <SMILES REPRESENTATION>
O=C(Nc1nccs1)c1cc2c(cc1Cl)Sc1nccn1S2(=O)=O

>  <CLASS LABEL>
-1

$$$$
>  <SMILES REPRESENTATION>
Cc1ccc(S(=O)(=O)/N=c2\ssc(Nc3ccccc3)c2Cl)cc1

>  <CLASS LABEL>
-1

$$$$

# outcome recorded in this test, key = COc1ccc(-c2cnc3ccnn3c2-c2cc(OC)c(OC)c(OC)c2)cc1
-1

// query: CCOC(=O)c1ccc(N(CCOS(C)(=O)=O)CCOS(C)(=O)=O)cc1C
-1

// query: CCOC(=O)c1c(C)nc2ccc(Cl)cc2c1-c1ccccc1
-1

// query: O=C1C(=O)c2ccccc2-c2ccccc21
-1

// query: S=c1nc2[nH]ncc2c(N/N=C/c2ccccc2)[nH]1
-1

###

Test system: SNB-75 CNS
OBSERVABLE: GI50

Some compounds with recorded GI50:
>  <COMPOUND>
S=c1nc2[nH]ncc2c(N/N=C/c2ccccc2)[nH]1

>  <VALUE REPORTED>
> 100 µM

$$$$
>  <COMPOUND>
Cc1n[nH]c(=S)n1/N=C/c1ccc(F)c(Oc2ccccc2)c1

>  <VALUE REPORTED>
45.1 µM

$$$$
>  <COMPOUND>
COc1ccc(/C=C2\CN(Cc3cn(CCCNc4ccnc5cc(Cl)ccc45)nn3)C/C(=C\c3ccc(OC)c(OC)c3)C2=O)cc1OC

>  <VALUE REPORTED>
1.71 µM

$$$$
>  <COMPOUND>
CCCc1cc2cc(-n3nc(C)c4c3CC(C)(C)CC4=O)cc(NC3CCC(O)CC3)c2c(=O)[nH]1 (stereo not given)

>  <VALUE REPORTED>
1.73 µM

$$$$
>  <COMPOUND>
COc1cc2ccc3c4c(OC)cc(OC)c(OC)c4c(=O)n(C)c3c2cc1OC

>  <VALUE REPORTED>
3.25 µM

$$$$
>  <COMPOUND>
N=C(N)c1ccc(-c2ccc(-c3ccc(Cl)cc3)o2)o1

>  <VALUE REPORTED>
1.5 µM

$$$$
>  <COMPOUND>
Clc1cc(Cl)c(Cl)c(-c2nc(-c3cccnc3)cs2)c1

>  <VALUE REPORTED>
23 µM

$$$$
>  <COMPOUND>
Cn1cccc1-c1cc(-c2cccs2)[nH]c(=O)c1C#N

>  <VALUE REPORTED>
37.7 µM

$$$$

Please state GI50 for every compound in the list that follows.
1. C/C(=N\NC(=O)c1cccnc1)c1cccc(/C(C)=N/NC(=O)c2cccnc2)n1
2. N.N.N.N.N.N.[I-].[Os]

1: 10.3 µM; 2: > 100 µM

###

For each of the compounds below, state its TGI.
Tested on: MOLT-4 leukemia
PROTOCOL DETAILS: NCI tumour cell line growth inhibition, 48 h
Numbers only, in µM.

>  <SMILES REPRESENTATION>
C#CCN=C(N/N=C/c1ccc([N+](=O)[O-])o1)NS(=O)(=O)c1cc(C)c(Cl)cc1SCC(N)=O

>  <TGI (µM)>
31.9

$$$$

Lab note: next compound to report on.
Tell me the measured TGI of c1cc(OCCN2CCCCCC2)ccc1CNc1ccc2nc(CCC3CCCCC3)[nH]c2c1 , please.
6.74

###

These molecules were tested on COLO 205 colon; GI50 is the recorded read-out.

>  <SMILES REPRESENTATION>
N.N.N.N.N.N.[I-].[Os]

>  <GI50>
> 100 µM

$$$$
>  <SMILES REPRESENTATION>
COc1ccc(N(CC(=O)NCCC[Te]c2ccccc2)C(=O)CCSC2=C(C)C(=O)c3ccccc3C2=O)cc1

>  <GI50>
1.99 µM

$$$$
>  <SMILES REPRESENTATION>
C/C(CC(=O)NNc1ccc([N+](=O)[O-])cc1)=N\Nc1ccc([N+](=O)[O-])cc1

>  <GI50>
3.8 µM

$$$$

Lab note: next molecule to report on.
Tell me the measured GI50 of O=C(Nc1ccccc1)Nc1cccc(-n2cc(-c3ccncc3)c(-c3ccc(O)c(Cl)c3)n2)c1 , please.
4.95 µM

###

Test system: SNB-75 CNS
PROTOCOL DETAILS: NCI tumour cell line growth inhibition, 48 h
For each of the compounds below, state its TGI.
Numbers only, in µM.

Please state TGI for every compound in the list that follows.
1. COc1ccc(CNC2=C(NC(C)=O)C(=O)c3ccccc3C2=O)cc1
2. CCC1=C(C)/C(=C/c2[nH]c(CBr)c(CC)c2C)N=C1CBr
3. C/C(CC(=O)NNc1ccc([N+](=O)[O-])cc1)=N\Nc1ccc([N+](=O)[O-])cc1
4. COC(=O)C1(C(=O)OC)CC2c3c(c4ccccc4n3C)CC(C1=O)N2Cc1ccccc1 (stereo not given)

1: 49.5; 2: 55.9; 3: 93.5; 4: 92

###

For each of the molecules below, state its TGI.
System: T-47D breast
PROTOCOL DETAILS: NCI tumour cell line growth inhibition, 48 h

>  <MOLECULE>
CNNCc1ccc(C(=O)NC(C)C)cc1

>  <ASSAY SYSTEM>
T-47D breast

>  <TGI>
> 500 µM

$$$$
>  <MOLECULE>
C/C(CC(=O)NNc1ccc([N+](=O)[O-])cc1)=N\Nc1ccc([N+](=O)[O-])cc1

>  <ASSAY SYSTEM>
T-47D breast

>  <TGI>
> 100 µM

$$$$

Please state TGI for every molecule in the list that follows.
1. O=S(=O)(O)c1cccc2c(N=Nc3c(O)ccc4ccccc34)cccc12
2. C=C1C(=O)O[C@@H]2C(=O)[C@@H](C)[C@@H]3C=CC(=O)[C@@]3(C)[C@@H](OC(=O)/C(C)=C\C)[C@H]12
3. CCC(C)C1NC(=O)C2CCCN2C(=O)C(CC2CO2)OC(=O)CCNC(=O)C(C)N(C)C(=O)C(C(C)C)N(C)C1=O (stereo not given)

["> 100 µM", "1.68 µM", "> 100 µM"]

###

For each of the compounds below, state its TGI.
System: SNB-78 CNS
PROTOCOL DETAILS: NCI tumour cell line growth inhibition, 48 h

Please state TGI for every compound in the list that follows.
1. COc1ccc(C(c2ccc(C(C)C)cc(=O)c2O)c2ccc3cccnc3c2O)cc1 (centres undefined)
2. COc1ccc(CNC2=C(NC(C)=O)C(=O)c3ccccc3C2=O)cc1
3. O=C(NCc1ccccc1)c1cc2cc(O)c(O)cc2cn1
4. Cc1oc2c(C)c(O)c3c(c2c1C1(C)OCCO1)C(=O)C=C(Cl)C3=O
5. O=C(O)c1ccc(O)c(N=Nc2cc(S(=O)(=O)O)c3ccccc3c2O)c1
6. Cc1ccccc1NC(=O)C(=O)C(c1cnc2ccc([N+](=O)[O-])cc2n1)[N+](=O)[O-] (centres undefined)
7. O=C(O)C1NCCc2c1[nH]c1ccccc21 (centres undefined)
8. COc1cc(-c2cc(=O)c3ccccc3o2)ccc1N

23.2 µM
40.6 µM
> 100 µM
> 100 µM
> 100 µM
> 100 µM
> 100 µM
> 100 µM

Please state TGI for every compound in the list that follows.
1. O=C1C(=O)N(C(=O)c2ccc(Cl)c(Cl)c2)c2ccc(Cl)cc21
2. N/C(=N\N=C\c1cccs1)NO
3. COC(=O)C1(C(=O)OC)CC2c3c(c4ccccc4n3C)CC(C1=O)N2Cc1ccccc1 (centres undefined)
4. CC(=O)O[C@H]1C(=O)O[C@@H]2C[C@H]3C(C)=CC(=O)[C@@H](O)[C@]3(C)[C@H]3[C@@]4(O)OC[C@]32[C@@H]1[C@@H](C)[C@H]4O
5. CCCN1CN(C(C(=O)N[C@@H]2C(=O)N3C2SC(C)(C)C3C(=O)O)c2ccccc2)CSC1=S (some centres undefined)
6. N=C1N(c2ccccc2)C(=O)C23CCCC2C13N1CCOCC1 (centres undefined)

1. > 100 µM
2. > 100 µM
3. > 100 µM
4. 0.384 µM
5. > 100 µM
6. > 100 µM

###

Tested on: UO-31 renal
PROTOCOL DETAILS: NCI tumour cell line growth inhibition, 48 h
Where a SMILES comes first, the peptide text is derived from it.
OBSERVABLE: TGI

Some compounds with recorded TGI:
>  <COMPOUND>
O=C1CC(CC(O)C(O)C(O)CO)CC(=O)N1 (centres undefined)

>  <OBSERVABLE>
TGI

>  <VALUE REPORTED>
> 100 µM

$$$$
>  <COMPOUND>
ClC1CCC2OOC1O2 (centres undefined)

>  <OBSERVABLE>
TGI

>  <VALUE REPORTED>
> 100 µM

$$$$
>  <COMPOUND>
CCCCCCCCCCCCn1c(=O)cc(NCCCC)c2cc3c(NCCCC)cc(=O)n(CCCCCCCCCCCC)c3nc21

>  <OBSERVABLE>
TGI

>  <VALUE REPORTED>
> 100 µM

$$$$

Lab note: next compound to report on.
Query TGI on UO-31 renal for CC(C)CC(NC(=O)C(CC(C)C)NC(=O)C(Cc1cnc[nH]1)NC(=O)C(C)NC(=O)C(NC(=O)C(C)NC(=O)C(Cc1c[nH]c2ccccc12)NC(=O)C(CCC(=O)O)NC(=O)C(N)Cc1ccccc1)C(C)C)C(N)=O (centres undefined) (H-FEWAVAHLL-NH2; configuration not given here)
> 100 µM
